Target: Matrix metalloproteinase-9 (Homo sapiens, UniProt P14780)
Sequence (P14780 whole entry): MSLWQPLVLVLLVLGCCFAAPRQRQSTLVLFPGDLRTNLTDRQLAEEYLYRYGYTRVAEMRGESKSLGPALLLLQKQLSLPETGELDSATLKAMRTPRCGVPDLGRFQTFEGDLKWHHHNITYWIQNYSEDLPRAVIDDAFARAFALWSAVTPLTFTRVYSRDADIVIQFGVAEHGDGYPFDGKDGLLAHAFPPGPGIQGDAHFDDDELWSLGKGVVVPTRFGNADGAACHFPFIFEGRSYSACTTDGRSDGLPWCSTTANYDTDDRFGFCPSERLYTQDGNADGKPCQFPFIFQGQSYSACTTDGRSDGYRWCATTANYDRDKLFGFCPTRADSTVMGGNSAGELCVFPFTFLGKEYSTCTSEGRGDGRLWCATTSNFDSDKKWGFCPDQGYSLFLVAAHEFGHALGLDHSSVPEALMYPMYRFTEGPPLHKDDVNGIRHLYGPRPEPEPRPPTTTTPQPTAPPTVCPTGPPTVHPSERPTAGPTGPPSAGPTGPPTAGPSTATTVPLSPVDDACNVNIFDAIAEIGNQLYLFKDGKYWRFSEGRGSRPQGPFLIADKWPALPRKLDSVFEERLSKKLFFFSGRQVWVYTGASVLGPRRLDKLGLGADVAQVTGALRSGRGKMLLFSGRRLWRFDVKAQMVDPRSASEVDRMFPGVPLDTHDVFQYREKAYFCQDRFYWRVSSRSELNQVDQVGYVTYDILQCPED
Assay: Inhibition of APMA-activated human recombinant MMP9 incubated for 5 mins using 4-nitrophenylacetate substrate by esterase assay
RESULT TYPE: IC50 (µM)

Examples with their reported IC50 follow.
- COMPOUND: "CCOc1ccc(C2=NN(c3ccc(S(N)(=O)=O)cc3)C(c3cccc4ccccc34)C2)cc1 (configuration not stated)"
  NUMERIC RESULT: 3.19
- COMPOUND: "Cc1ccccc1C1=NN(c2ccc(S(N)(=O)=O)cc2)C(c2ccc3ccccc3c2)C1 (configuration not stated)"
  NUMERIC RESULT: 7.91
- COMPOUND: "Cc1ccc(C2=NN(c3ccc(S(N)(=O)=O)cc3)C(c3ccc4ccccc4c3)C2)cc1 (configuration not stated)"
  NUMERIC RESULT: 4.95
- COMPOUND: "Cc1ccccc1C1=NN(c2ccc(S(N)(=O)=O)cc2)C(c2cccc3ccccc23)C1 (configuration not stated)"
  NUMERIC RESULT: 5.43
- COMPOUND: "NS(=O)(=O)c1ccc(N2N=C(c3cccc(Br)c3)CC2c2cccc3ccccc23)cc1 (configuration not stated)"
  NUMERIC RESULT: 7.97
- COMPOUND: "NS(=O)(=O)c1ccc(N2N=C(c3cccc(I)c3)CC2c2ccc3ccccc3c2)cc1 (configuration not stated)"
  NUMERIC RESULT: 6.91

1: NS(=O)(=O)c1ccc(N2N=C(c3ccccc3)CC2c2ccc3ccccc3c2)cc1 (configuration not stated)
2: COc1cccc(C2=NN(c3ccc(S(N)(=O)=O)cc3)C(c3ccc4ccccc4c3)C2)c1 (configuration not stated)
From the items above, decide which of 1 and 2 has the lower IC50 reading. Your answer should be the label of the entry you select.
2
(2: 4.68 µM, 1: 33.8 µM)

1: NS(=O)(=O)c1ccc(N2N=C(c3ccc(Cl)cc3)CC2c2ccc3ccccc3c2)cc1 (configuration not stated)
2: Cc1ccc(C2=NN(c3ccc(S(N)(=O)=O)cc3)C(c3cccc4ccccc34)C2)c(C)c1 (configuration not stated)
3: NS(=O)(=O)c1ccc(N2N=C(c3ccccc3Cl)CC2c2ccc3ccccc3c2)cc1 (configuration not stated)
Number of compounds to sort: 3. Sort criterion: IC50, ascending. Returns: the labels arranged in the requested order.
2, 1, 3

1: NS(=O)(=O)c1ccc(N2N=C(c3cccc(F)c3)CC2c2ccc3ccccc3c2)cc1 (configuration not stated)
2: NS(=O)(=O)c1ccc(N2N=C(c3ccccc3)CC2c2cccc3ccccc23)cc1 (configuration not stated)
Which value of IC50 is greater, the one for 1 or the one for 2 ? Your answer should be the label of the entry you select.
2

a: Cc1cccc(C2=NN(c3ccc(S(N)(=O)=O)cc3)C(c3ccc4ccccc4c3)C2)c1 (configuration not stated)
b: CCOc1ccc(C2=NN(c3ccc(S(N)(=O)=O)cc3)C(c3ccc4ccccc4c3)C2)cc1 (configuration not stated)
From the items above, decide which of a and b has the lower IC50 reading. Your answer should be the label of the entry you select.
a
(a: 5.92 µM, b: 18.3 µM)

a: Cc1cccc(C2=NN(c3ccc(S(N)(=O)=O)cc3)C(c3cccc4ccccc34)C2)c1 (configuration not stated)
b: NS(=O)(=O)c1ccc(N2N=C(c3cccc(I)c3)CC2c2cccc3ccccc23)cc1 (configuration not stated)
Which value of IC50 is greater, the one for a or the one for b ? Your answer should be the label of the entry you select.
b
(b: 12.9 µM, a: 4.29 µM)

###

Biological target: 72 kDa type IV collagenase (Homo sapiens, UniProt P08253)
Sequence (P08253 whole entry): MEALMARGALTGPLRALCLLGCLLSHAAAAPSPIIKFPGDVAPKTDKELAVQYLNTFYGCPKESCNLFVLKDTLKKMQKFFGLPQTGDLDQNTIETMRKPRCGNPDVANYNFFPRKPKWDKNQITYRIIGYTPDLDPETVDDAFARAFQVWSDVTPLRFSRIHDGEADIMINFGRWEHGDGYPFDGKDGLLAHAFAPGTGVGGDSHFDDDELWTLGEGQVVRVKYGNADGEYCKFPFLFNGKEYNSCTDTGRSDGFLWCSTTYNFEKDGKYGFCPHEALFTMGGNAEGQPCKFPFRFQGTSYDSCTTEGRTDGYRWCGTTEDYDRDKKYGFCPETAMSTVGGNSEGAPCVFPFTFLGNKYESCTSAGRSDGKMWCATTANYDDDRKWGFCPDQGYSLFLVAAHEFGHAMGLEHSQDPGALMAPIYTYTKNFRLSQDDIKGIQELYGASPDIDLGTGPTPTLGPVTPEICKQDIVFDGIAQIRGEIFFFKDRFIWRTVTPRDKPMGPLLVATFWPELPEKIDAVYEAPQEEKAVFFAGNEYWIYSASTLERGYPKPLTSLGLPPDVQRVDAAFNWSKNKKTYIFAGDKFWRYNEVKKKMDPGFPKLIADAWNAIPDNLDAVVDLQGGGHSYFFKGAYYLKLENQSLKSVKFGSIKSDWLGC
Assay: Inhibition of APMA-activated human recombinant MMP2 incubated for 5 mins using 4-nitrophenylacetate substrate by esterase assay
Conditions: read-out: IC50
RESULT TYPE: IC50 (µM)

1: Cc1ccc(C2=NN(c3ccc(S(N)(=O)=O)cc3)C(c3cccc4ccccc34)C2)cc1 (centres undefined)
2: NS(=O)(=O)c1ccc(N2N=C(c3cccc(Br)c3)CC2c2ccc3ccccc3c2)cc1 (centres undefined)
3: NS(=O)(=O)c1ccc(N2N=C(c3ccc(Cl)cc3)CC2c2ccc3ccccc3c2)cc1 (centres undefined)
4: COc1cccc(C2=NN(c3ccc(S(N)(=O)=O)cc3)C(c3ccc4ccccc4c3)C2)c1 (centres undefined)
Hey, can you sort those compounds up there by IC50, smallest first? Returns: the labels arranged in the requested order.
4, 3, 1, 2

A: NS(=O)(=O)c1ccc(N2N=C(c3ccc(F)cc3)CC2c2ccc3ccccc3c2)cc1 (centres undefined)
B: NS(=O)(=O)c1ccc(N2N=C(c3ccccc3Cl)CC2c2cccc3ccccc23)cc1 (centres undefined)
From the items above, decide which of A and B has the lower IC50 reading. Your answer should be the label of the entry you select.
B
(B: 8.63 µM, A: 16.8 µM)

###

Biological target: 72 kDa type IV collagenase (Homo sapiens, UniProt P08253)
Experiment: Inhibition of APMA-activated human recombinant MMP2 incubated for 5 mins using 4-nitrophenylacetate substrate by esterase assay
Conditions: read-out: IC50
RESULT TYPE: IC50 (µM)

Examples with their reported IC50 follow.
- COMPOUND: "Cc1ccc(C2=NN(c3ccc(S(N)(=O)=O)cc3)C(c3cccc4ccccc34)C2)c(C)c1 (stereo not drawn)"
  SCALE UNIT: "µM"
  IC50: 0.21
- COMPOUND: "NS(=O)(=O)c1ccc(N2N=C(c3ccccc3)CC2c2ccc3ccccc3c2)cc1 (stereo not drawn)"
  SCALE UNIT: "µM"
  IC50: 12.6
- COMPOUND: "CCOc1ccc(C2=NN(c3ccc(S(N)(=O)=O)cc3)C(c3cccc4ccccc34)C2)cc1 (stereo not drawn)"
  SCALE UNIT: "µM"
  IC50: 0.81

1: NS(=O)(=O)c1ccc(N2N=C(c3cccc(F)c3)CC2c2ccc3ccccc3c2)cc1 (stereo not drawn)
2: CCOc1ccc(C2=NN(c3ccc(S(N)(=O)=O)cc3)C(c3ccc4ccccc4c3)C2)cc1 (stereo not drawn)
Which value of IC50 is greater, the one for 1 or the one for 2 ? Your answer should be the label of the entry you select.
1

A: Cc1cccc(C2=NN(c3ccc(S(N)(=O)=O)cc3)C(c3cccc4ccccc34)C2)c1 (stereo not drawn)
B: NS(=O)(=O)c1ccc(N2N=C(c3cccc(I)c3)CC2c2cccc3ccccc23)cc1 (stereo not drawn)
From the items above, decide which of A and B has the lower IC50 reading. Your answer should be the label of the entry you select.
A

P: Cc1cccc(C2=NN(c3ccc(S(N)(=O)=O)cc3)C(c3ccc4ccccc4c3)C2)c1 (stereo not drawn)
Q: NS(=O)(=O)c1ccc(N2N=C(c3ccccc3Cl)CC2c2ccc3ccccc3c2)cc1 (stereo not drawn)
Which value of IC50 is greater, the one for P or the one for Q ? Your answer should be the label of the entry you select.
Q

A: COc1cccc(C2=NN(c3ccc(S(N)(=O)=O)cc3)C(c3cccc4ccccc34)C2)c1 (stereo not drawn)
B: NS(=O)(=O)c1ccc(N2N=C(c3ccccc3)CC2c2cccc3ccccc23)cc1 (stereo not drawn)
Which value of IC50 is greater, the one for A or the one for B ? Your answer should be the label of the entry you select.
B
(B: 7.92 µM, A: 4.83 µM)
